Listed here: items and their measured log10 CC50 at 5 days.
# measurement-description: Test B: Cytotoxicity Assay
# Assay type: cell-based
# study-conditions: human, uninfected MT-4 cells, same protocol as Test A
Annotation: log10 of CC50 at 5 days, µM basis.

Cn1nc(NS(C)(=O)=O)c2cccc(-c3ccc(C#CC(C)(C)CO)nc3[C@H](Cc3cc(F)cc(F)c3)NC(=O)Cn3nc(C(F)(F)F)c4c3C(F)(F)[C@@H]3C[C@H]43)c21 [Compound 63]: 0.95
CC(C)(O)C#Cc1ccc(-c2cccc3c(N)noc23)c([C@H](Cc2cc(F)cc(F)c2)NC(=O)Cn2nc(C(F)(F)F)c3c2C(F)(F)[C@@H]2C[C@H]32)n1 [Compound 69]: -0.14
Cc1ccc(C)c2c1NC(=O)C2CC(=O)N[C@@H](Cc1cc(F)cc(F)c1)c1nc(C#CC(C)(C)O)ccc1-c1ccc(Cl)c2c(NS(C)(=O)=O)nn(C)c12 (stereo partly shown) [Compound 196]: 1.03
Cn1nc(NS(C)(=O)=O)c2c(Cl)ccc(-c3ccc(C#CC(C)(C)C)nc3[C@H](Cc3cc(F)cc(F)c3)NC(=O)Cn3nc(C(F)F)c4c3C(F)(F)[C@@H]3C[C@H]43)c21 [Compound 131E]: 1.35
Cn1nc(NCC(F)F)c2cccc(-c3ccc(C#CC(C)(C)O)nc3[C@H](Cc3cc(F)cc(F)c3)NC(=O)Cn3nc(C(F)F)c4c3C(F)(F)[C@@H]3C[C@H]43)c21 [Compound 74D]: 0.84
CC(C(=O)N[C@@H](Cc1cc(F)cc(F)c1)c1nc(C#CC(C)(C)O)ccc1-c1ccc(Cl)c2c(NS(C)(=O)=O)nn(C)c12)c1ccccc1 (stereo partly shown) [Compound 195]: 1.05
Cn1nc(NC(=O)C(F)(F)F)c2c(Cl)ccc(-c3ccc(C#CC(C)(C)O)nc3[C@H](Cc3cc(F)cc(F)c3)NC(=O)Cn3nc(C(F)F)c4c3C(F)(F)[C@@H]3C[C@H]43)c21 [Compound 98]: 0.92
Cn1nc(NS(C)(=O)=O)c2c(Cl)ccc(-c3cc(C(N)=O)cnc3[C@H](Cc3cc(F)cc(F)c3)NC(=O)Cn3nc(C(F)F)c4c3C(F)(F)[C@@H]3C[C@H]43)c21 [Compound 186D]: 0.18

Consider now this further molecule.
Given item Cc1c(-c2ccc(C#CC(C)(C)O)nc2[C@H](Cc2cc(F)cc(F)c2)NC(=O)Cn2nc(C(F)(F)F)c3c2C(F)(F)[C@@H]2C[C@H]32)ccc2n[nH]c(=O)n12 [Compound 27G] , the value recorded as its log10 CC50 at 5 days is 1.02
